Parameter peptide exchange yield: see the listing below.
- measured on: T1, HLA-A*02:01 (human)
- T1 construct: monomers captured on streptavidin plates; also called MHC class I
- protocol: UV peptide exchange ELISA

# count of solved cases: 2
| binder | peptide exchange yield |
| --- | --- |
| ALYELEGTTV | 50 to 75% |
| FLFPNQYVDV | 50 to 75% |

Specify measured peptide exchange yield for VLLSLLEKV .
20 to 50%

Retrieve peptide exchange yield measured for LLWGDLIWL and print it.
50 to 75%

Specify measured peptide exchange yield for ALLPASGQIAL .
50 to 75%

Please supply the value of reported peptide exchange yield for the item GLLDGGVDILL
50 to 75%

Return peptide exchange yield (reported value) for this binder: RQISIRGIVGV
50 to 75%

Reference source for all entries: patent US20170037110A1
